Listed below: EC50 values for each entry.
# TGT: UniProtKB P35414
# Sequence (P35414 1-380): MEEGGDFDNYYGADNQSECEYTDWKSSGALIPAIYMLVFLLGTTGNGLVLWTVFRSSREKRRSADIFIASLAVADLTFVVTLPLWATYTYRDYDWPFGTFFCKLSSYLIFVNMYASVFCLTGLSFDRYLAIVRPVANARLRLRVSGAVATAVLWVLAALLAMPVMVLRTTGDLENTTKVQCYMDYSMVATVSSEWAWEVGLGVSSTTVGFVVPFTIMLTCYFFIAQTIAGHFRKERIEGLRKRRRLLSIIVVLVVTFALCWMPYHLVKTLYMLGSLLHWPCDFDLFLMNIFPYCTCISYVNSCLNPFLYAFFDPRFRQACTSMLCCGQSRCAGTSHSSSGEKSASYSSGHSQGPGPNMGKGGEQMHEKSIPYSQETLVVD
# MEASUREMENT_NOTES: APJ cAMP assay (DiscoverX enzyme fragment complementation; inhibition of forskolin-stimulated cAMP)
# MEASUREMENT_CONTEXT: CHO-K1 cell line stably expressing the APJ Receptor; EC80 forskolin; 30 minutes at 37° C.; read-out: Potency Range (APJ cAMP EC50)

In the examples that follow, each entry is paired with its recorded EC50.
COMPOUND: CCOc1cccc(-c2nc3ncc(Br)nc3n2-c2c(OC)cccc2OC)n1 [Example 1]
EC50: 100 to 10000 nM

COMPOUND: CCOc1cccc(-c2nc3nc(N)c(NS(C)(=O)=O)nc3n2-c2c(OC)cccc2OC)n1 [Example 145]
EC50: 1 to 100 nM

COMPOUND: CCOc1cccc(-c2nc3ncc(NS(=O)(=O)N(C)C)nc3n2-c2c(OC)cccc2OC)n1 [Example 76]
EC50: 1 to 100 nM

COMPOUND: CCOc1cccc(-c2nc3ncc(NC(=O)Cc4ccccc4)nc3n2-c2c(OC)cccc2OC)n1 [Example 14]
EC50: 1 to 100 nM

COMPOUND: CCOc1cccc(-c2nc3ccc(NS(C)(=O)=O)nc3n2-c2c(OC)cccc2OC)n1 [Example 63]
EC50: 1 to 100 nM

input: // EC50 lookup, key: CCOc1cccc(-c2nc3ncc(NS(=O)(=O)[C@H]4CC[C@H](O)CC4)nc3n2-c2c(OC)cccc2OC)n1 [Example 39]
output: < 1 nM

input: Same read-out for CCOc1cccc(-c2nc3nc(CCC4CC4)c(NS(C)(=O)=O)nc3n2-c2c(OC)cccc2OC)n1 [Example 66] ?
output: < 1 nM

input: Now try CCOc1cccc(-c2nc3ncc(NS(C)(=O)=O)nc3n2-c2ncccc2OC)n1 [Example 49] .
output: 100 to 10000 nM
